conditions: [M+H]+; instrument: DT; single field, calibrated with Agilent tune mix (Agilent)
parameterMeasured: collision cross section (N2) (Å²)

[[record]]
molecule = "O=c1nc[nH]c2nc[nH]c12"
readoutnumber = 127.1

[[record]]
molecule = "CC/C=C\\C/C=C\\C/C=C\\CCCCCCCC(=O)O"
readoutnumber = 170.7

[[record]]
molecule = "O=C(O)CCCC[C@@H]1SC[C@@H]2NC(=O)N[C@@H]21"
readoutnumber = 150.4

[[record]]
molecule = "C[C@H](O)[C@H](O)C1=Nc2c([nH]c(N)nc2=O)NC1 [7,8-Dihydrobiopterin]"
readoutnumber = 154.1

[[record]]
molecule = "O=c1nc[nH]c2c1ncn2[C@H]1C[C@H](O)[C@@H](CO)O1"
readoutnumber = 151.7

[[record]]
molecule = "NC(N)=NCC(=O)O"
readoutnumber = 124.8

[[record]]
molecule = "Nc1ccn([C@@H]2O[C@H](COP(=O)(O)O)[C@@H](O)[C@H]2O)c(=O)n1 [Cytidine 5'-monophosphate]"
readoutnumber = 166.3

[[record]]
molecule = "CC(=O)O[C@H](CC(=O)[O-])C[N+](C)(C)C"
readoutnumber = 143

[[record]]
molecule = "Cc1c(C)c2c(c(C)c1O)CC[C@@](C)(CCC[C@H](C)CCC[C@H](C)CCCC(C)C)O2"
readoutnumber = 216.6

[[record]]
molecule = "CN(C)c1nc(=O)c2ncn([C@@H]3O[C@H](CO)[C@@H](O)[C@H]3O)c2[nH]1"
readoutnumber = 170.6

[[record]]
molecule = "O=c1cc(-c2ccccc2)oc2ccccc12"
readoutnumber = 146.7

[[record]]
molecule = "C[N+](C)(C)CCOP(=O)([O-])OC[C@H](O)CO"
readoutnumber = 155.5

[[record]]
molecule = "CC(=O)Nc1ccn([C@@H]2O[C@H](CO)[C@@H](O)[C@H]2O)c(=O)n1"
readoutnumber = 162.7

[[record]]
molecule = "CN(C)CC(=O)O"
readoutnumber = 119.7

[[record]]
molecule = "Cc1cn([C@@H]2O[C@H](CO)[C@@H](O)[C@H]2O)c(=O)nc1N"
readoutnumber = 157.4

[[record]]
molecule = "Nc1nc(=O)c2ncn([C@@H]3O[C@H](COP(=O)(O)OP(=O)(O)O[C@H]4O[C@H](CO)[C@@H](O)[C@H](O)[C@H]4O)[C@@H](O)[C@H]3O)c2[nH]1"
readoutnumber = 218.9

[[record]]
molecule = "Nc1nc(=O)c2ncn([C@@H]3O[C@H](COP(=O)(O)OP(=O)(O)O)[C@@H](O)[C@H]3O)c2[nH]1"
readoutnumber = 191.5

[[record]]
molecule = "C[C@]12CC[C@@H]3c4ccc(O)cc4CC[C@H]3[C@@H]1CCC2=O"
readoutnumber = 164.3

[[record]]
molecule = "N[C@@H](C[C@@H](O)C(=O)O)C(=O)O [L-Erythro-4-Hydroxyglutamic acid]"
readoutnumber = 135.8

[[record]]
molecule = "O=C(O)CCC1=C(CC(=O)O)c2cc3nc(cc4[nH]c(cc5[nH]c(cc1n2)c(CC(=O)O)c5CCC(=O)O)c(CC(=O)O)c4CCC(=O)O)C(CC(=O)O)=C3CCC(=O)O"
readoutnumber = 285.1

[[record]]
molecule = "NC(N)=NCCCC(=O)O"
readoutnumber = 129.7

[[record]]
molecule = "CC1=CC(=O)c2ccccc2C1=O"
readoutnumber = 134.6

[[record]]
molecule = "Cn1cnc(C[C@H](N)C(=O)O)c1"
readoutnumber = 133.1

[[record]]
molecule = "CC[C@H](C)[C@@H]1NC(=O)[C@H](Cc2ccc(O)cc2)NC(=O)[C@@H](N)CSSC[C@@H](C(=O)N2CCC[C@H]2C(=O)N[C@@H](CC(C)C)C(=O)NCC(N)=O)NC(=O)[C@H](CC(N)=O)NC(=O)[C@H](CCC(N)=O)NC1=O"
readoutnumber = 303.8

[[record]]
molecule = "NCCCNCCCCNCCCN"
readoutnumber = 148.2

[[record]]
molecule = "NC(CCCC(=O)O)C(=O)O (racemic)"
readoutnumber = 134.4

[[record]]
molecule = "CCCCC[C@H](O)/C=C/[C@@H]1[C@H]2C/C(=C/CCCC(=O)O)O[C@H]2C[C@H]1O"
readoutnumber = 198.6

[[record]]
molecule = "CC(C)[C@@H](C)/C=C/[C@@H](C)[C@H]1CC[C@H]2/C(=C/C=C3\\C[C@@H](O)CC[C@@H]3C)CCC[C@]12C [Dihydrotachysterol]"
readoutnumber = 205.8

[[record]]
molecule = "CC1=C(C/C=C(\\C)CCC[C@H](C)CCC[C@H](C)CCCC(C)C)C(=O)c2ccccc2C1=O [Vitamin K1]"
readoutnumber = 216.1

[[record]]
molecule = "CCCCCCCCCCCCCC(=O)SCCNC(=O)CCNC(=O)C(O)C(C)(C)COP(=O)(O)OP(=O)(O)OC[C@H]1O[C@@H](n2cnc3c(N)ncnc32)[C@H](O)[C@@H]1OP(=O)(O)O (stereo partly specified)"
readoutnumber = 289.9

[[record]]
molecule = "CC1=C(/C=C/C(C)=C\\C=C\\C(C)=C\\C=O)C(C)(C)CCC1 [9-cis-Retinal]"
readoutnumber = 170.1

